Species on record: Homo sapiens
method.notes: Inhibition of ADP (5 uM) induced platelet aggregation in human platelet rich plasma
Format: functional, organism-based
measurement.context: Homo sapiens, Plasma
parameter.measured: IC50 (µM)

Some molecules with recorded IC50:
{"smiles.entry": "O=C(O)COc1cccc2c(CCSCCC(c3ccccc3)c3ccccc3)coc12", "IC50 (µM)": 5.2}
{"smiles.entry": "O=C(O)COc1cccc2c1CCC=C2CCO/N=C(\\c1ccccc1)c1cccnc1", "IC50 (µM)": 0.17}

(A) CC(SCCc1c(CCO)oc2c(OCC(=O)O)cccc12)(c1ccccc1)c1ccccc1
(B) CC(SCCc1coc2c(OCC(=O)O)cccc12)(c1ccccc1)c1ccccc1
Of the two listed items, A and B , which carries the larger IC50 figure? Selection: enter the item's label.
B
(B: 8.1 µM, A: 0.71 µM)
